molecular target: HLA-A*02:01 (Homo sapiens, UniProt P04439, D140Y/D185E/D98H/E176V/E277Q/G131W/G231S/I119V/I121R/I166T/I218V/L300P/L318F/N151K/N90K/P208A/P217A/Q86G/Q94H/R138H/R169H/T345S); assay: MHC binding assay (UV-ligand exchange, β2m ELISA); conditions: MHC class I binding score; binding to HLA-A*02:01 ranged by peptide exchange yield (UV-ligand exchange, β2m ELISA)

substance	Peptide exchange
23 (FLGDPPPGL; listed as Homo sapiens) [compound 23]	+++ (>50 = +++)
217 (NMMSGISSV; listed as Homo sapiens) [compound 217]	+++ (>50 = +++)
